From: PubChem BioAssay (NCI)

Test system: MDA-MB-435 melanoma
method-summary: NCI-60 one-dose screen, 48 h (100 = growth as untreated, 0 = no growth, -100 = all killed)
condition-info: 10 µM unless noted
The panel holds about 83,000 compounds, 20% with a hit somewhere; the sample as a whole holds those more often.
property-label: growth (%)
# number only, unit % dropped from output

For the record "C/C(=N/NC(=O)Cn1c2ccccc2c2ccncc21)c1cccs1" , what value of growth is listed for MDA-MB-435 melanoma?
110

Request - read-out growth | tested on MDA-MB-435 melanoma | compound "c1cncc(-c2nc3ccccc3[nH]2)c1"
121

Recorded growth for CC(C)NCC(O)COc1ccc(CC(N)=O)cc1 (stereo not drawn) with MDA-MB-435 melanoma, please?
107

* * *

Tested on: EKVX NSCLC
method-summary: NCI-60 one-dose screen, 48 h (100 = growth as untreated, 0 = no growth, -100 = all killed)
condition-info: 10 µM unless noted
This is part of a sample that, as a whole, favours compounds with a hit. Of some 83,000 tested, about 20% had one in any assay.
// label = MET if growth is not less than 60%, otherwise NOT MET

State whether the measured growth reaches 60%, counting equality as reaching it, for "CCc1ccc(C2=C/C(=C/c3ccc(Cl)cc3)C(=O)N2CCc2ccc(S(N)(=O)=O)cc2)cc1"
NOT MET

Form field: growth at least 60%? Entry: "O=C(Nc1ccc(-n2ccc3c(NC(=O)c4ccccc4)ncnc32)cc1)c1cccc(C(F)(F)F)c1"
MET

Say whether "CN1CCN(CC(=O)N(C)c2ccc(N=C(c3ccccc3)c3c(O)[nH]c4ccc(C#N)cc34)cc2)CC1" shows growth of 60% or more.
MET

Check if growth >= 60% (inclusive). Item: "CCn1cc(C(=O)O)c(=O)c2cc(F)c(N3CCN(CC(=O)Nc4ccc(C(C)=O)cc4)CC3)cc21"
MET

Identify whether the reported growth of the following molecule is 60% or greater: "Cc1ncc(CO)c(C(=O)O)c1O"
MET

Given the entry "Nc1n[nH]c2cccc(C#Cc3cccc(NC(=O)c4cccc(C(F)(F)F)c4)c3)c12" , answer whether its growth meets or surpasses 60%.
MET

Check this molecule for growth at or above 60%: "CC[C@@]1(O)C(=O)OCc2c1cc1n(c2=O)Cc2c-1nc1ccccc1c2/C=N/OC(C)(C)C"
NOT MET

Assess whether reported growth for "COc1ccc(-c2ccc(NC(=O)Nc3ccc(Cl)c(C(F)(F)F)c3)c(C)n2)cc1" sits at 60% or higher.
NOT MET

Kindly determine if growth recorded for "COc1ccc(-c2cc3ccc(N(C)C)cc3nc2N)c(F)c1" is above or exactly 60%.
NOT MET

* * *

For each record, write down the corresponding growth.
System: HOP-92 NSCLC
method-summary: NCI-60 one-dose screen, 48 h (100 = growth as untreated, 0 = no growth, -100 = all killed)
condition-info: 10 µM unless noted
This is part of a sample that, as a whole, favours compounds with a hit. Of some 83,000 tested, about 20% had one in any assay.
Quick reminder: number only, in %, skip the unit.

May I ask what growth has been recorded for "COc1cc(-c2nc(N)n(CC(=O)Nc3ccc(/C(C)=N\O)cc3)n2)cc(OC)c1OC" ?
88.2

Find the recorded growth belonging to CC1CCc2cc(F)cc3c(=O)c(C(=O)O)cn1c23 (centres undefined) and report it.
91.9

Item under review: "COc1cc(/C=C/C(=O)c2c(C)[n+]([O-])c3ccccc3[n+]2[O-])ccc1O" . Reported growth?
42.2

Fill blank: measured growth of the compound "O=[N+]([O-])c1cccc(C2c3ccccc3Oc3ccccc32)c1" is ____.
81

* * *

Exercise: state measured growth for each of the compounds provided.
System: SF-268 CNS
method-summary: NCI-60 one-dose screen, 48 h (100 = growth as untreated, 0 = no growth, -100 = all killed)
condition-info: 10 µM unless noted
This is part of a sample that, as a whole, favours compounds with a hit. Of some 83,000 tested, about 20% had one in any assay. Activity calls are given as the source filed them. Rule for the calls: active = growth percent below 10; inactive = the rest.

Tell me the measured growth of "COc1ccc(-c2c(NC(=O)Nc3ccc(Cl)c(C(F)(F)F)c3)cnn2-c2ccc(S(N)(=O)=O)cc2)cc1" , please.
37.5% (inactive)

If you can, please state the reported growth value of C=C(C)[C@@H]1C/C=C(\COC(=O)[C@H](OC(C)=O)C(NC(=O)c2ccccc2)c2ccccc2)CC[C@H]2O[C@]2(C)CC/C=C(\C)CC1 (stereo partly drawn) .
78.9% [5 µM] (inactive)

Quick one: growth for "O=S(=O)(Nc1cccc2cc(OS(=O)(=O)c3ccccc3)ccc12)c1ccccc1" ?
74.2% (inactive)

Fill blank: measured growth of the compound "CCc1cccc(C)c1NC(=O)c1sc2nc3c(cc2c1N)CCCCC3" is ____.
56.5% (inactive)

I am curious: what growth value has been reported for S=C=NP1(N=C=S)=NP(N=C=S)(N=C=S)=NP(N=C=S)(N=C=S)=NP(N=C=S)(N=C=S)=N1 (stereo not drawn) ?
103% (inactive)

State the recorded growth for this entry: "C=C1C(=O)O[C@H]2[C@H]1CC/C(COC(=O)c1ccc(Cl)nc1)=C\CC[C@@]1(C)O[C@@H]21"
56.9% (inactive)

Entry under review: C=CC(C)(O)CCC1C(=C)CCC2C(C)(C)CCCC12C (stereo not drawn) . Reported growth?
94.5% (inactive)

Query: growth; subject: "COc1cc(C(=O)C[n+]2ccccc2)ccc1OC(C)=O"
98.4% (inactive)

Item under review: "O=C(Cn1c2ccccc2c2ccncc21)N/N=C\c1ccc2ccccc2c1" . Reported growth?
41.6% (inactive)

Which measured growth value corresponds to "CCCCCn1ncc(-c2c(O)c(O)cc3c(O)c(-c4c(C)cc5c(-c6cnn(CCCCC)n6)c(O)c(O)cc5c4O)c(C)cc23)n1" ?
5.18% (active)

Reported growth for "O=C(N/N=C1\SCC(=O)N1c1ccccc1)c1cc(-c2cc3ccccc3o2)nn1-c1ccccc1" : what is it?
103% (inactive)

Return reported growth; argument: "C=C1c2c(Cl)ccc(O)c2C(O)=C2C(=O)[C@]3(O)C(O)=C(C(N)=O)C(=O)[C@@H](N(C)C)[C@@H]3[C@@H](O)[C@H]12"
11.8% (inactive)

Which growth is reported for this compound? "CCOc1ccc(Cc2nccc3cc(OCC)c(OCC)cc23)cc1OCC"
78% (inactive)

I would be grateful if you could share the reported growth for "O=S1(=O)N(CCNc2nccc(-c3c(-c4cccc(O)c4)nc4sccn34)n2)CCN1Cc1ccccc1" .
86% (inactive)

// growth lookup, key: CC1=C[S+](c2ccccc2)c2cccc3cc4ccccc4c1c23 (stereo not drawn)
-38.7% (active)

Looking for the measured growth of "Nc1nc(-c2cc3c(cc2Cl)NC(=O)/C3=C/c2ccc(Cl)cc2)cs1" , can you help?
44.7% (inactive)

// returns reported growth for input "Cc1ccc2nc(-c3ccc(-n4on4-c4ccc(/C=C/c5ccc(-n6on6-c6ccc(-c7nc8ccc(C)cc8s7)cc6)cc5S(=O)(=O)O)c(S(=O)(=O)O)c4)cc3)sc2c1"
99.8% (inactive)

Reported growth for "COc1ccc(-c2nnc(NC(=O)CN3CCN(c4cc5c(cc4F)c(=O)c(C(=O)O)cn5C4CC4)CC3)s2)cc1OC" : what is it?
97.7% (inactive)

* * *

Tested on: COLO 205 colon
method-summary: NCI-60 one-dose screen, 48 h
condition-info: 10 µM unless noted
This is part of a sample that, as a whole, favours compounds with a hit. Of some 83,000 tested, about 20% had one in any assay. Activity calls are given as the source filed them. Rule for the calls: active = growth percent below 10; inactive = the rest.
Hello, when you answer, please use one of the following outcomes: active, inactive

For this molecule, state the assay outcome: "c1ccc2nc(Cn3cc[n+](Cc4ccc5ccccc5n4)c3)ccc2c1"
inactive

What outcome does the record of this test show for "CC(=O)n1cc(/C=C2\N=C(c3ccc(Cl)cc3)N(c3ccc(S(=O)(=O)Nc4nccs4)cc3)C2=O)c2ccccc21" ?
inactive

Please share the test call associated with "O=C1COc2ccccc2C(=O)N1CCCCNc1ccccc1" .
inactive

State the result this test recorded for "COC(=O)Nc1nc2ccc(Sc3ccccc3)cc2[nH]1" .
active

Could you kindly confirm the outcome this assay logged for "CCOc1ccc(NC2=C(Cl)C(=O)c3ccccc3C2=O)cc1" ?
inactive

Which outcome did this test record for the molecule "COc1cc2ncnc(Oc3ccc(NC(=O)Nc4ccc(CN5CCOCC5)c(C(F)(F)F)c4)c4ccccc34)c2cc1OC" ?
inactive

// outcome(item) with item = "CCCOC(=O)c1ccc([N+](=O)[O-])o1"
inactive

Assay outcome for "CCc1c(C)c2cc(-n3c(-c4ccc(OC)cc4)csc3=N)c(O)c(C)c2oc1=O" : what was it?
inactive

So what was the verdict on "Nc1ncc(-c2ccc3ncnc(Nc4cncc(Cl)c4)c3c2)cn1" in this test?
inactive

Call for entry "Cc1ccc(=O)n(-c2ccc(Br)cc2F)c1" :
inactive

In this assay, the call recorded for "Cc1cccc(NC(=O)CCc2ccc(N3C(N)=NC(N)=NC3(C)C)cc2)c1" was what?
inactive

GET /call?item= "CCCCCCCCCCCCCCCCNc1ccccc1" returns the recorded outcome of this test.
inactive

Outcome logged for "OCc1cn(-c2ccc(Cl)cc2)nc1-c1ccc(O)cc1" in this assay:
inactive

Field: outcome | Entry: "CC(C)(C)OC(=O)NCc1cccc(N=C=S)c1"
inactive

Hey, what did the test say about "COc1ccc(-c2nnc(SCC(=O)Nc3ccc(C(=O)/C=C/c4ccc(Cl)cc4)cc3)o2)cc1OC" ?
inactive

Would you mind telling me which call this test gave "c1nc(SC2=NCCN2)c2[nH]cnc2n1" ?
inactive

// return assay outcome for "Cc1cc[n+](CCCC[n+]2ccc(C)cc2)cc1"
inactive

# lookup: test call for "O=C(Nc1cccc([N+](=O)[O-])c1)c1ccc2ccccc2c1O"
inactive

For "O=c1c2ccccc2[nH]n1Cc1ccc2c(c1)OCO2" , which call appears in the assay record?
inactive

Returns: the outcome recorded for "Cc1cn(-c2nc3c(c(NCc4ccccc4)n2)COCC3)c2cccc(C(N)=O)c12" in this assay.
inactive

// outcome(item) with item = "COc1ccc(-c2c(NC(=O)Nc3ccc(Cl)c(C(F)(F)F)c3)cnn2-c2ccc(S(N)(=O)=O)cc2)cc1"
inactive

What did the test return for "C=CCn1c(SCC(=O)Nc2ccc(C(=O)/C=C/c3cc(OC)c(OC)c(OC)c3)cc2)nnc1-c1ccc(OC)cc1" ?
active

How was COc1cccc(/C=N/C(=S)NC2(C)C3CCC(C3)C2(C)C)c1O (stereo unspecified) classified in this test?
inactive

Short answer needed: outcome of this test for "O=C(Nc1ccc(-n2ccc3c(NC(=O)c4ccccc4)nccc32)cc1)Nc1ccc(Cl)c(Cl)c1" ?
active

In this assay, the call recorded for "COc1cc(/C=C\c2cc(/C=C\c3ccc(O)c(OC)c3)n(C(=O)CNc3ccccc3OC)n2)ccc1O" was what?
inactive

Given "CN1CCN(C(=O)/C=C/c2ccc([N+](=O)[O-])o2)CC1" , state the outcome it received in this test.
inactive
